# targetUnderTest: Sso7c4-R22A (Sulfolobus solfataricus P2, UniProt A0A0E3K9N8 1-54, R22A)
# Sequence (A0A0E3K9N8 entry or part of it R22A | R22A R22A): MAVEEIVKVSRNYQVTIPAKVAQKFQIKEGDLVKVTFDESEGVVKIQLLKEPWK
# methodSummary: fluorescence polarization; 20 mM Tris-Cl pH 7.5, no added salt, 25 C; FP with 100 nM FAM-DNA, 1 h at room temperature
# experimentalParameters: protein: recombinant; chain copies: 2; label: 5'-FAM; blunt, self-complementary
readoutName: pKd
The scale used: pKd is minus the common logarithm of the concentration in molar units.

Ask: Can you share its pKd? I mean this binder: 5'-FAM-20-bp DNA (dsDNA) DNA 1: CCAACACTGGCCAGTGTTGG DNA 2: CCAACACTGGCCAGTGTTGG
Reply: 5.29
